Values were extracted from the supplement of paper PMC9112550.

- System: Escherichia coli TOP10
- Assay Explanation: shrunken log2 fold change of peptide-encoding DNA abundance (4.5 h post-induction vs induction); higher = less antimicrobial activity (less host growth inhibition)
- Condition Info: time post-induction: 4.5 h; library: site-saturation at positions 5, 18, 19, 20
Record form. Attribute: shrunken log2 fold change. Fill in for each entry.
One number for each entry.

For each listed entry, give its shrunken log2 fold change.
1. RRIRSRPPRLPRPRPRPIQLPRP
2. RRIRRRPPRLPRPRPRPSYCPRP

1: -0.238; 2: -0.0727

----------
- Test system: Escherichia coli TOP10;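 further: peptides expressed intracellularly from a pBAD plasmid library in pooled LB shake-flask culture, induced with 0.3% L-arabinose, DNA abundance read by NGS, three biological replicates, DESeq2 with apeglm shrinkage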
- Assay Explanation: shrunken log2 fold change of peptide-encoding DNA abundance (4.5 h post-induction vs induction); higher = less antimicrobial activity (less host growth inhibition)
- Condition Info: time post-induction: 4.5 h; library: site-saturation at positions 5, 18, 19, 20
Record form. Attribute: shrunken log2 fold change. Fill in for each entry.
One number for each entry.

| Sequence Entry | shrunken log2 fold change |
| --- | --- |
| RRIRNRPPRLPRPRPRPDDRPRP | 0.0384 |
| RRIRMRPPRLPRPRPRPVNWPRP | 0.223 |
| RRIRARPPRLPRPRPRPGQKPRP | -0.0844 |

For each listed entry, give its shrunken log2 fold change.
1. RRIRHRPPRLPRPRPRPMADPRP
2. RRIRKRPPRLPRPRPRPTRGPRP
3. RRIRTRPPRLPRPRPRPTLEPRP
4. RRIRPRPPRLPRPRPRPRSTPRP

[0.0417, 0.857, 0.0319, 0.347]

Find the recorded shrunken log2 fold change belonging to "RRIRMRPPRLPRPRPRPKFQPRP" and report it.
0.549
